Tested on: CU-ACC2
Test: area under concentration-response curve (viability) (AUC (a.u.)); higher = less active
Conditions: 48 h
Overview of recorded area under concentration-response curve for various compounds
Keep it simple and answer with nothing but the number.

CC(/C=C1\SC(=S)N(CC(=O)O)C1=O)=C\c1ccccc1 = 594

Query block: Would you mind telling me what area under concentration-response curve value was observed for `F\C1=C\NC(=O)NC1=O` ?
Result block: 505

Query block: What measured area under concentration-response curve goes with `C[N]1C=C(C=N1)C2=C3\C=N/NC(=O)C4=C3C(=CC(=C4)NC(=O)[C@H](N)C5CCCCC5)[NH]2` ?
Result block: 594

Query block: May I ask what area under concentration-response curve has been recorded for Nc1nc(OC(c2ccc(-c3cccc(F)c3)cc2)C(F)(F)F)cc(-c2ccc(C[C@@H](N)C(=O)O)cc2)n1 (some centres not stated) ?
Result block: 488

Query block: Given the compound `CC(C)(C)OC(=O)Nc1ccc(-c2cc(C(=O)NCCCCCCC(=O)NO)no2)cc1` , what is its reported area under concentration-response curve?
Result block: 598

Query block: For the compound shown here, `NC/1=N/C2=C(N=C[N]2[C@H]3C[C@H](O)[C@@H](CO)C3=C)C(=O)N1` , give the reported area under concentration-response curve.
Result block: 589

Query block: // area under concentration-response curve lookup, key: CC/1=C(/C(CC(=O)N1)C2=CC=C(C=C2)C(F)(F)F)C(=O)NC3=C(F)C=C4[NH]N=CC4=C3 (configuration not stated)
Result block: 560

* * *

Listing: area under concentration-response curve of selected molecules
System: CU-ACC1
Assay: area under concentration-response curve (viability) (AUC (a.u.)); higher = less active
Details: 48 h
No unit in the answer, only the number.

C[C@@H]1CC[C@@]2(CC[C@]3(C)\C(=C/C[C@@H]4[C@@]5(C)CC[C@H](O)C(C)(C)[C@@H]5CC[C@@]34C)[C@@H]2[C@H]1C)C(O)=O = 402

Query block: // query area under concentration-response curve value for entry Cn1ncc(Cl)c1-c1cc(C(=O)NC(CN)Cc2ccc(F)c(F)c2)oc1Cl (stereo unspecified)
Result block: 393

Query block: Please report the recorded area under concentration-response curve for `N[S+](=O)([O-])c1ccc([S+](=O)([O-])Nc2cccc3c(Cl)c[nH]c23)cc1` .
Result block: 404

Query block: Could you share which area under concentration-response curve value was measured for `CN(C)c1cc2c(cc1Sc1nc3c(N)nccc3n1CCNCC(C)(C)C)OCO2` ?
Result block: 391

Query block: Form field: reported area under concentration-response curve of `C=CC(=O)N[C@H]1CN(c2nc(Nc3cn(C)nc3OC)c3ncn(C)c3n2)C[C@@H]1F`
Result block: 401

Query block: Any idea what its area under concentration-response curve is? The molecule is `CC1(C)OCCn2c1nc1c(N3CCOCC3)nc(-c3cnc(N)nc3)nc12`
Result block: 395

* * *

System: CU-ACC1
Assay: area under concentration-response curve (viability) (AUC (a.u.)); higher = less active
Details: 48 h
Items are presented alongside their recorded area under concentration-response curve.
Hey, just send me the number, nothing else.

Check out these entries, answers already filled in.
CN1CCN(c2ncc(-c3cc(Cl)cc(Cl)c3Cl)c(N)n2)CC1 = 405
CN1CCN(CC1)C2=NC3=C(C=CC=C3)C(=N2)C/4=C(/C(=O)NC4=O)C5=C[NH]C6=C5C=CC=C6 = 498
CC(=O)N1c2ccc(-c3ccc(C(=O)O)cc3)cc2[C@H](Nc2ccc(Cl)cc2)C[C@@H]1C = 380

Query block: area under concentration-response curve lookup needed for `CCOC(CN1C(=O)[C@](CC(=O)Nc2ccc(C)cc2)(NC(=O)Nc2ccc(C)cc2)c2ccccc21)OCC` , thanks.
Result block: 432

Query block: Endpoint output: area under concentration-response curve of `CO[C@H]1/C=C/O[C@@]2(C)Oc3c(C)c(O)c4c(O)c(c5c(nc6cc(C)ccn65)c4c3C2=O)NC(=O)/C(C)=C\C=C\[C@H](C)[C@H](O)[C@@H](C)[C@@H](O)[C@@H](C)[C@H](OC(C)=O)[C@@H]1C` . Value?
Result block: 475

Query block: Consider the compound shown here: `Cc1nc2cc(C(=O)N3CCC4(CC3)CC(=O)c3c(cnn3C(C)C)C4)ccc2[nH]1` What is its recorded area under concentration-response curve?
Result block: 467

Query block: Which value of area under concentration-response curve has been reported for `NC(=O)OCC(COC(N)=O)c1ccccc1` in the records?
Result block: 497

Query block: I would be grateful if you could share the reported area under concentration-response curve for COc1cc(O)c2c(c1)C1OC1C[C@H](O)[C@H](O)C(=O)/C=C\C[C@H](C)OC2=O (stereo partly drawn) .
Result block: 429
